Please go through the items and note down their inhibition.
target: Phosphodiesterase 4 (Rattus norvegicus) (UniProt P14270+P14646+P14644+P54748); test: Displacement of [3H]rolipram from Phosphodiesterase 4 in rat brain membranes at 10 uM; assay type: cell membranes
Answers are plain numbers, in %.

Look at each compound and report its inhibition.
1. CCCCc1nc(N(Cc2ccccc2)Cc2ccccc2)c2sccc2n1
2. CCCCc1nc(N(CCC)Cc2ccccc2)c2sccc2n1
3. CCc1nc(NCc2ccccc2)c2sccc2n1
4. c1ccc(CNc2nc(-c3ccccc3)nc3ccsc23)cc1

1: 37; 2: 37; 3: 41; 4: 8

###

target: Phosphodiesterase 3 (Cavia porcellus); assay: Inhibitory activity against cGMP inhibited Phosphodiesterase 3, isolated from guinea pig ventricular tissue
observation-type: IC50

Sample answers from the record:
c1ccc(CNc2[nH]c(Cc3ccccc3)nc3ncnc2-3)cc1 : > 200 µM
c1ccc(CNc2ncnc3ccsc23)cc1 : 68 µM
CCCCc1nc(NC(=O)c2ccccc2)c2sccc2n1 : > 200 µM

List reported IC50 for each of these molecules:
1. c1ccc(CNc2nc(Cc3ccccc3)nc3ccsc23)cc1
2. CCCCc1nc(N(Cc2ccccc2)Cc2ccccc2)c2sccc2n1
3. CCCCc1nc2ccccc2c(=O)n1Cc1ccccc1
4. CCc1nc(NCc2ccccc2)c2sccc2n1
5. c1ccc(CNc2nc(-c3ccccc3)nc3ccsc23)cc1
6. CCCCc1nc(NCc2ccc(-c3ccccc3)cc2)c2sccc2n1

1. 5 µM
2. > 200 µM
3. > 200 µM
4. 30 µM
5. > 200 µM
6. 200 µM
